// values below are reported Emax
- TESTED TARGET: TRAP1 enzyme (Homo sapiens)
- ASSAY: Malachite green phosphate assay of TRAP1 ATPase activity
- Assay type: biochemical
- CONDITION: read-out: Malachite Green Fluor DRC: Mean Emax
- Method: The Potency of test compounds to modulate the ATPase activity of TRAP1 enzyme was evaluated using malachite green phosphatase assay. The assay is based on quantification of the green complex formed between Malachite Green, molybdate and inorganic phosphate generated in the phosphatase reaction. Assays were performed using a Malachite Green assay kit. […] The reaction was stopped by adding 12% H2SO4 and the plate was read for fluorescence at 620 nm (λex=573 nm). […]
RECORDED METRIC: Emax

{"columns": ["ENTRY SMILES", "VALUE MEASURED"],
 "data": [
  ["Cc1ncoc1C(=O)Nc1cccc(S(=O)(=O)N2CCCc3cc(Cl)ccc32)c1", "200 to 300%"],
  ["COc1ccc(NC(=O)c2cnc(C(F)(F)F)[nH]2)cc1S(=O)(=O)N(CCCCCC(=O)O)c1ccc(Br)cc1", "160 to 199%"],
  ["CCc1ccc(NC(=O)c2cnccc2C)cc1S(=O)(=O)Nc1ccc(C)cc1", "123 to 159%"],
  ["COc1ccc(NC(=O)c2nc(-c3ccccc3)ccc2C)cc1S(=O)(=O)Nc1ccc(Cl)cc1", "123 to 159%"]
]}

----------
- TESTED TARGET: TRAP1 enzyme (Homo sapiens, UniProt Q12931)
- ASSAY: Malachite green phosphate assay of TRAP1 ATPase activity
- Assay type: biochemical
- CONDITION: read-out: Malachite Green Fluor DRC: Mean Emax
Listed compounds paired with reported Emax
RECORDED METRIC: Emax

{"columns": ["ENTRY SMILES", "RECORDED METRIC", "VALUE MEASURED"],
 "data": [
  ["C=C(C)c1ncoc1C(=O)Nc1ccc(OC)c(S(=O)(=O)Nc2ccc(Cl)cc2)c1", "Emax", "200 to 300%"],
  ["COc1ccc(NC(=O)c2cnc[nH]2)cc1S(=O)(=O)N(CCOCCOCCBr)c1ccc(Br)cc1", "Emax", "160 to 199%"],
  ["O=C(Nc1ccc(CCO)c(S(=O)(=O)Nc2ccc(Br)cc2)c1)c1ncco1", "Emax", "160 to 199%"]
]}

----------
- TESTED TARGET: TRAP1 enzyme (Homo sapiens, UniProt Q12931)
- Sequence (Q12931 60-704): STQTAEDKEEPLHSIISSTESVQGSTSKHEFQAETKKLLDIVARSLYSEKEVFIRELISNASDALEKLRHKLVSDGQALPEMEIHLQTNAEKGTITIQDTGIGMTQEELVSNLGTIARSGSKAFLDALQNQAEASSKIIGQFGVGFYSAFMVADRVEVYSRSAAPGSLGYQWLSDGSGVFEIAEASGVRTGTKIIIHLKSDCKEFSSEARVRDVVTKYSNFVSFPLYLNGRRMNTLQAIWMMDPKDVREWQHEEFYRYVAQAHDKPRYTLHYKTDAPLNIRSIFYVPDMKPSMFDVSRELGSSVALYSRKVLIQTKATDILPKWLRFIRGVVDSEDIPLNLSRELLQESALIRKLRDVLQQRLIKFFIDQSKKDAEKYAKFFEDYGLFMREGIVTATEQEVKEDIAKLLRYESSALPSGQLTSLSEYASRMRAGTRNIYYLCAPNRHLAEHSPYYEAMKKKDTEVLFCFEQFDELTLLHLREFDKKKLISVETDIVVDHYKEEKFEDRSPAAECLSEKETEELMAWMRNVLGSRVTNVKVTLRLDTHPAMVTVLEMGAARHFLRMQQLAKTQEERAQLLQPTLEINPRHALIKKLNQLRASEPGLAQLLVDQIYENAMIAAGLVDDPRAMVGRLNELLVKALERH
- ASSAY: ADP Glo assay of TRAP1 ATPase activity
- Assay type: biochemical
- CONDITION: read-out: ADP GLO DRC: Mean Emax

{"columns": ["ENTRY SMILES", "Emax"],
 "data": [
  ["COc1ccc(NC(=O)c2cnc(-c3cccs3)[nH]2)cc1S(=O)(=O)Nc1ccc(Cl)cc1", "200 to 300%"],
  ["COc1ccc(NC(=O)c2ncc(-c3ccccc3)o2)cc1S(=O)(=O)Nc1c(C)ccc2ncccc12", "160 to 199%"],
  ["Cc1cc(C(=O)Nc2ccc(F)c(S(=O)(=O)Nc3ccc(Cl)cc3)c2)c2c(C)noc2n1", "200 to 300%"],
  ["COc1ccc(NC(=O)c2cn(C)c3ncccc23)cc1S(=O)(=O)Nc1c(C)cccc1C", "> 300%"],
  ["COc1ccc(NC(=O)c2cccc(-c3cncnc3)c2)cc1S(=O)(=O)Nc1c(C)cccc1C", "160 to 199%"],
  ["COc1ccc(NC(=O)c2ncn(-c3cccc(F)c3)n2)cc1S(=O)(=O)Nc1c(C)cccc1C", "200 to 300%"]
]}
